Could you please report measured relative viability for the items listed next?
- Test system: NCI-H727
- Assay Method Text: relative viability (nuclei count vs DMSO), 5 days (fraction); higher = more cells survive
- Details: first compound 0.6325 µM
Lab note: jot the number down without any unit.

What does the record list as relative viability for COCC1(CO)C(=O)C2CCN1CC2 (stereo unspecified) [PRIMA-1MET] + CC(=O)c1c(C)c2cnc(Nc3ccc(N4CCNCC4)cn3)nc2n(C2CCCC2)c1=O [Palbociclib] (partner 0.5 µM) ?
0.584

Same lookup for COCC1(CO)C(=O)C2CCN1CC2 (stereo unspecified) [PRIMA-1MET] + Cc1nc(Nc2ncc(C(=O)Nc3c(C)cccc3Cl)s2)cc(N2CCN(CCO)CC2)n1 [Dasatinib] (partner 0.075 µM) , please.
0.346

Same lookup for COCC1(CO)C(=O)C2CCN1CC2 (stereo unspecified) [PRIMA-1MET] + NC(=O)Nc1cc(-c2cccc(F)c2)sc1C(=O)N[C@H]1CCCNC1 [AZD7762] (partner 0.2 µM) , please.
0.62

Same lookup for COCC1(CO)C(=O)C2CCN1CC2 (stereo unspecified) [PRIMA-1MET] + CS(=O)(=O)CCNCc1ccc(-c2ccc3ncnc(Nc4ccc(OCc5cccc(F)c5)c(Cl)c4)c3c2)o1 [Lapatinib] (partner 2 µM) , please.
0.769

Same lookup for COCC1(CO)C(=O)C2CCN1CC2 (stereo unspecified) [PRIMA-1MET] + CC(C)C[C@H](NC(=O)[C@H](Cc1ccccc1)NC(=O)c1cnccn1)B(O)O [Bortezomib] (partner 0.002 µM) , please.
0.829

Same lookup for COCC1(CO)C(=O)C2CCN1CC2 (stereo unspecified) [PRIMA-1MET] + Cc1cc(Nc2cc(N3CCN(C)CC3)nc(Sc3ccc(NC(=O)C4CC4)cc3)n2)n[nH]1 [Tozasertib] (partner 0.1 µM) , please.
0.543
